# experimental target: T1, human ROR1 (hROR1) (human, UniProt Q01973 30-937)
# T1 construct: On HCT116-hROR1 transfectants, Mino cells or Ntera-2 cells, as the assay of each row says; also called receptor tyrosine kinase like orphan receptor 1
# assay name: flow cytometry, HCT116-hROR1 cells
quantity kind: Bmax (MFI)
A bare number is not enough; add the unit after it.

Given SRP2196-A04 (antibody, V domains shown, His/FLAG-tagged IgG1) VH: EVQLVESGGGLVQPGGSLRLSCAASGFNISPYYIHWVRQAPGKGLEWVGQIYPISGHTYQADSVKGRFTISADTSKNTAYLQMNSLRAEDTAVYYCARESRRYVGPFGYWGQGTLVTVSS VL: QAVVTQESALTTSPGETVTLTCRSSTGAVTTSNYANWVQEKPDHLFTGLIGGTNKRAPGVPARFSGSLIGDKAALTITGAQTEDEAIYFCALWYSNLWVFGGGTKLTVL , state its recorded Bmax (MFI).
14200 MFI

Ok, now SRP2196-A07 (antibody, V domains shown, His/FLAG-tagged IgG1) VH: EVQLVESGGGLVQPGGSLRLSCAASGFNITGYYIHWVRQAPGKGLEWVGQISPNSGSTYYADSVKGRFTISADTSKNTAYLQMSSLRAEDTAVYYCARDSRRYVRGWDYWGQGTLVTVSS VL: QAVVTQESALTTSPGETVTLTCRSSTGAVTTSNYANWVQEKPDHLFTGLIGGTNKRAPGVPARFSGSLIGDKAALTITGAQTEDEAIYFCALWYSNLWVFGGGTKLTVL
14100 MFI

Ok, now SRP2196-A10 (antibody, V domains shown, His/FLAG-tagged IgG1) VH: EVQLVESGGGLVQPGGSLRLSCAASGFNITGYYIHWVRQAPGKGLEWVGYISPNSGATHYADSVKGRFTISADISKNTAYLQMNSLRAEDTAVHYCARDSRRYVRSWDYWGQGTLVTVSS VL: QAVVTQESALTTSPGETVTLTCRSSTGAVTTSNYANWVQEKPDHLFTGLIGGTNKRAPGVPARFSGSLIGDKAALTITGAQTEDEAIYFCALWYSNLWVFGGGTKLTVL
14400 MFI

Ok, now SRP2196-A02 (antibody, V domains shown, His/FLAG-tagged IgG1) VH: EVQLVESGGGLVQPGGSLRLSCAASGFNITGYYIHWVRQAPGKGLEWVGQISPNSGATHDADSVKGRFTISADTSKNTAYLQMNSLRAEDTAVYYCARDSRRYVRGWDYWGQGTLVTVSS VL: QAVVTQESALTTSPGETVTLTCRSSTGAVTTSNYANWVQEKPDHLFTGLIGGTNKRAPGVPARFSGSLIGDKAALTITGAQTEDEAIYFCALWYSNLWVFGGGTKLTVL
15200 MFI

Ok, now SRP2196-B11 (antibody, V domains shown, His/FLAG-tagged IgG1) VH: EVQLVESGGGLVQPGGSLRLSCAASGFNITGYYIHWVRQAPGRGLEWVGQISPNSGYTYYADSVKGRFTISADTSKNTAYLQMNSLRAEDTAVYYCARDSRRYIRSWDYWGQGTLVTVSS VL: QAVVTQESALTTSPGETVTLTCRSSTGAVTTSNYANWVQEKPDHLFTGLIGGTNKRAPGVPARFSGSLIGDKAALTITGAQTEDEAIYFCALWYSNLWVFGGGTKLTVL
14700 MFI

Ok, now SRP2196-A09 (antibody, V domains shown, His/FLAG-tagged IgG1) VH: EVQLVESGGGLVQPGGSLRLSCAASGFNITGYYIHWVRQAPGKGLEWVGQISPNSGATHYADSVKGRFTISADTSKNTAYLQMNSLRAEDTAVYYCARDSRRYIRSWDYWGQGTLVTVSS VL: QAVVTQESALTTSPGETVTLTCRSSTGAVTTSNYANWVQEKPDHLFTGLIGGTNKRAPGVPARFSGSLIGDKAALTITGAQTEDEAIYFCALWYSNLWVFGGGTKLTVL
14600 MFI

Ok, now SRP2196-C02 (antibody, V domains shown, His/FLAG-tagged IgG1) VH: EVQLVESGGGLVQPGGSLRLSCAASGFNITGYHIHWVRQAPGKGLEWVGFISPNSGWTYSADSVKGRFTISADTSKNTAYLQMNSLRAEDTAVYYCARDSRRYVRPFDYWGQGTLVTVSS VL: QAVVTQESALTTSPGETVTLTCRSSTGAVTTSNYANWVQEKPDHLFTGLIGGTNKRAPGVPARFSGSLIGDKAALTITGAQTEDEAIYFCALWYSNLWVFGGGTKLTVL
15300 MFI

Ok, now SRP2196-B03 (antibody, V domains shown, His/FLAG-tagged IgG1) VH: EVQLVESGGGLAQPGGSLRLSCAASGFNITGYYIHWVRQAPGKGLEWVGYISPNSGATHYADSVKGRFTISADTSKNTAYLQMNSLRAEDTAVYYCARDSRRYVRPFDYWGQGTLVTVSS VL: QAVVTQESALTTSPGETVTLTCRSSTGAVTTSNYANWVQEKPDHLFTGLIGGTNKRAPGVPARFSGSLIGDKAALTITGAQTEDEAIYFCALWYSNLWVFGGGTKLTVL
15600 MFI
